# SYSTEM UNDER TEST: Cytochrome P450 2C9 (Homo sapiens) (UniProt P11712)
# Sequence (P11712 whole entry, looked up): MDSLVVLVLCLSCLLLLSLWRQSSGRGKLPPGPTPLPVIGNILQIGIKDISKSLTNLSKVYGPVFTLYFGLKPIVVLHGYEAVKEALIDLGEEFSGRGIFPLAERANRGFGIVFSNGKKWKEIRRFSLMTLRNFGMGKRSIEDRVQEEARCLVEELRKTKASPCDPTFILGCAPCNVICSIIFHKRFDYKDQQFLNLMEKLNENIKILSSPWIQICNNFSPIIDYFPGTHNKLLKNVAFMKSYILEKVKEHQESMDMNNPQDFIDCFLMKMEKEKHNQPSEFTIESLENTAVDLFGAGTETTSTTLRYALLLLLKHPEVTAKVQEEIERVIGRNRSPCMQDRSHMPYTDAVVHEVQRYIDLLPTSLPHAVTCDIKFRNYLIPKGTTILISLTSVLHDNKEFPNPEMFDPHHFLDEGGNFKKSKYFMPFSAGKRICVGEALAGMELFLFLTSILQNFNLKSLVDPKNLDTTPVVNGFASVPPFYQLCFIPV
# ASSAY PROCEDURE: Cytochrome panel assay with activity outcomes
# CONDITION SET: recombinant CYP, pro-luciferin dealkylation, luminescence, p450-cyp2c9; series mostly up to 57.1 µM
Out of some 16,000 compounds screened, about 4,000 (25%) were called active. Not shown: some 26% with an inconclusive outcome. The list is a sample of the results.
ENDPOINT LABEL: AC50

Known results for compounds:
Incoming: Which AC50 value belongs to `CCOC(=O)Cc1csc(NS(=O)(=O)c2ccccc2)n1` ?
Outgoing: 5.01 µM (active)

Incoming: Which AC50 value belongs to `CCOC(=O)c1sc(NC(C)=O)nc1-c1ccccc1` ?
Outgoing: 31.6 µM (active)

Incoming: Which AC50 value belongs to `COC(=O)c1c(-c2ccc3ccccc3c2)csc1NC(=O)Cc1ccc(OC)c(OC)c1` ?
Outgoing: 0.447 µM (active)

Incoming: Which AC50 value belongs to `C[C@@]1(C(=O)O)NCCc2cc(O)c(O)cc21` ?
Outgoing: inactive

Incoming: Which AC50 value belongs to `O=C(O)[C@@H](O)[C@@H](O)[C@@H](O[C@H]1O[C@@H](CO)[C@@H](O)[C@@H](O)[C@@H]1O)[C@@H](O)CO` ?
Outgoing: inactive

***
Incoming: Which AC50 value belongs to `O=S(=O)(Nc1nc(-c2sccc2Cl)cs1)c1cc(Cl)ccc1Cl` ?
Outgoing: 0.631 µM (active)
